Experiment: Compound concentration in brain, spleen and plasma samples of the GCase enhancement study
Assay type: in vivo, mice (C57BL/6)
Details: male, C57BL/6, mouse, po; plasma; 10 mg/kg p.o., nine doses, 24-hour washout; Table 4C
reportedMetric: concentration at 24 h (nM)
A number alone suffices; assume nM.

# lookup: concentration at 24 h of O[C@@H]1[C@@H](CCl)CNC[C@H]1O
104

---

Experiment: Rat pharmacokinetics
Type: in vivo, Sprague-Dawley rats
Settings: male, Sprague-Dawley, plasma, PO, 100 mg/kg free base, read-out: t1/2 (converted)
reportedMetric: half-life (h)
The figure you give is taken to be in h; do not add the unit.

Quick one: half-life of O[C@@H]1CNCC(CF)[C@H]1O (stereo in doubt) [Compound A] ?
2.6
